- Tested on: Escherichia coli
- experiment notes: Antimicrobial activity against Escherichia coli J53 harboring pCHE-A plasmid expressing blaGES-5 gene by agar dilution method
- Type: functional
quantity kind: MIC (µg/mL)
Report the figure in µg/mL without appending any unit label.

>>> print(df.to_string())
                                   compound  quantity_kind  result
0  C[C@@H](O)[C@H]1C(=O)N2C(C(=O)O)=C(S[C@@H]3CN[C@H](C(=O)Nc4cccc(C(=O)O)c4)C3)[C@H](C)[C@H]12 [ERTAPENEM]            MIC    0.12
1  C[C@@H](O)[C@H]1C(=O)N2C(C(=O)O)=C(S[C@@H]3CN[C@H](C(=O)N(C)C)C3)[C@H](C)[C@H]12 [MEROPENEM]            MIC    0.25
2  CO[C@@]1(NC(=O)Cc2cccs2)C(=O)N2C(C(=O)O)=C(COC(N)=O)CS[C@@H]21 [CEFOXITIN]            MIC     128
3  CC(C)(O/N=C(\C(=O)N[C@@H]1C(=O)N2C(C(=O)[O-])=C(C[n+]3ccccc3)CS[C@H]12)c1csc(N)n1)C(=O)O [CEFTAZIDIME]            MIC     128

Here is the next item to consider.
Q: Recorded MIC for C[C@@H](O)[C@H]1C(=O)N2C(C(=O)O)=C(SCCNC=N)C[C@H]12 [IMIPENEM ANHYDROUS] , please?
Ans: 1

Data provenance: ChEMBL document CHEMBL1649460
